test: pKa determination by spectrophotometric method; format: physicochemical; settings: spectrophotometric method, buffer solutions of different pH
MEASURE NAME: pKa
Output: the number by itself.

# return recorded pKa for entry `Cc1cn2c(=S)c3nc[nH]c3nc2[nH]1`
8.8

Quick one: give measured pKa for `OC[C@H]1O[C@@H](n2cnc3c(=S)n4cc[nH]c4nc32)[C@H](O)[C@@H]1O`
8.6

Provide only the value of recorded pKa for `S=c1c2nc[nH]c2nc2[nH]ccn12`
8.6

Fill in pKa for record `Cc1cn2c(=S)c3ncn([C@@H]4O[C@H](CO)[C@@H](O)[C@H]4O)c3nc2[nH]1`
8.8

----------
test: n-octanol/phosphate buffer pH 7.4 partition coefficient (lipophilicity determination); format: physicochemical; conditions: n-octanol/phosphate buffer pH 7.4, pH 7.4, 37 °C, 1-octanol/phosphate buffer pH 7.4; read-out: Experimental log Po/w (pH 7.4)
What logP at 5 h was measured for each of the following?

State, in one line, measured logP at 5 h of OC[C@H]1O[C@@H](n2cnc3c(=S)n4cc[nH]c4nc32)[C@H](O)[C@@H]1O [TEGuo, 9-thio-1,N^2-ethenoguanosine]
-0.96

Give the reported value of logP at 5 h for this record: Cc1cn2c(=S)c3ncn([C@@H]4O[C@H](CO)[C@@H](O)[C@H]4O)c3nc2[nH]1 [6-Me-TEGuo, 6-methyl-9-thio-1,N^2-ethenoguanosine]
-0.67

Given CC(=O)OC[C@H]1O[C@@H](n2cnc3c(=S)n4cc(C)[nH]c4nc32)[C@H](OC(C)=O)[C@@H]1OC(C)=O [6-Me-TEG] , respond with its logP at 5 h.
0.75

Origin of values: paper PMC10219169
